# test-protocol: In vivo pharmacokinetic experiment in CD-1 female mice, intravenous
# assay-setup: mouse, in vivo, iv, 2 mg/kg, CD-1 mice, 2 mpk, read-out: Whole blood AUClast/plasma AUClast ratio
Examples of compounds with documented blood plasma ratio follow.
Respond numerically, and do not add a unit to the figure.

Sample answers from the record:
[
  {
    "smiles-code": "NS(=O)(=O)OC[C@H]1[C@H](F)[C@@H](Nc2ncncc2C(=O)c2cc3c(s2)CC[C@]32NCCc3ccc(Cl)cc32)C[C@@H]1O",
    "blood plasma ratio": 63.4
  },
  {
    "smiles-code": "NS(=O)(=O)OC[C@H]1[C@H](F)[C@@H](Nc2ncncc2C(=O)c2cc3c(s2)C=C[C@]32NCCc3ccc(Cl)cc32)C[C@@H]1O",
    "blood plasma ratio": 49.2
  },
  {
    "smiles-code": "NS(=O)(=O)OC[C@H]1[C@H](F)[C@@H](Nc2ncncc2C(=O)c2cc3c(s2)CCC[C@]32NCCc3ccc(F)cc32)C[C@@H]1O",
    "blood plasma ratio": 56
  }
]

State its blood plasma ratio for this compound: NS(=O)(=O)OC[C@H]1[C@H](F)[C@@H](Nc2ncncc2C(=O)c2cc3c(s2)CCC[C@]32NCCc3ccc(Cl)cc32)C[C@@H]1O
75.7
